TARGET: CBP (Homo sapiens)
Construct: host or cells: A549 CBP HiBit cells
TEST: CBP degradation, HiBit technology in A549 CBP HiBit cells (24 h)
Assay type: cell-based
MEASUREMENT_SETUP: 24 hrs post treatment
Procedure: p300 and CBP degradation potency and Dmax were determined using in cell western (ICW) assay technology in H1299 cells or HiBit technology in A549 HiBit cells. A549 P300 HiBit and A549 CBP HiBit cells were plated in separate 384-well, TC treated, white-opaque, flat-bottomed microplate. […] After incubation, luminescent signal of each plate was measured using the Envision instrument (Perkin Elmer).
ENDPOINT_NAME: DC50

[
  {
    "MOLECULE": "CC(C)c1cc(N2CCOc3cc(-c4ccc(C(=O)NCC#Cc5ccc6occ(C7CCC(=O)NC7=O)c6c5)nc4)ccc32)cc2c1n(C)c(=O)n2C (stereo not drawn)",
    "VALUE_OBSERVED": "> 1 µM"
  },
  {
    "MOLECULE": "CC(C)c1cc(N(C)c2cnc(-c3ccc(C(=O)NCC#Cc4ccc5cnn(C6CCC(=O)NC6=O)c5c4)nc3)nc2)cc2c1n(C)c(=O)n2C (stereo not drawn)",
    "VALUE_OBSERVED": "> 1 µM"
  },
  {
    "MOLECULE": "Cc1cc(-c2cc3cccc(-c4ccc5c(c4)n(C)c(=O)n5C)c3cn2)cnc1C(=O)NCC#Cc1cc2c([C@@H]3CCC(=O)NC3=O)cccc2o1",
    "VALUE_OBSERVED": "> 1 µM"
  },
  {
    "MOLECULE": "Cc1cc(-c2cc3cccc(-c4cc(C(C)C)c5c(c4)n(C)c(=O)n5C)c3cn2)cnc1C(=O)NCC#Cc1ccc2c(c1)c(C1CCC(=O)NC1=O)nn2C (stereo not drawn)",
    "VALUE_OBSERVED": "0.01 to 0.099 µM"
  },
  {
    "MOLECULE": "Cc1cc(-c2ncc3c(n2)OCCN3c2ccc3c(c2)n(C)c(=O)n3C)cnc1C(=O)NCC#Cc1cc2c(C3CCC(=O)NC3=O)nccc2o1 (stereo not drawn)",
    "VALUE_OBSERVED": "> 1 µM"
  },
  {
    "MOLECULE": "CN1CCN(c2ccc3c(c2)n(C)c(=O)n3C)c2cnc(-c3ccc(C(=O)NCC#Cc4ccc5occ(C6CCC(=O)NC6=O)c5c4)nc3)nc21 (stereo not drawn)",
    "VALUE_OBSERVED": "> 1 µM"
  },
  {
    "MOLECULE": "CC(C)c1cc(-c2cccc3cc(-c4ccc(C(=O)NCC#Cc5ccc6oc(=O)n(C7CCC(=O)NC7=O)c6c5)nc4)ncc23)cc2c1n(C)c(=O)n2C (stereo not drawn)",
    "VALUE_OBSERVED": "0.01 to 0.099 µM"
  },
  {
    "MOLECULE": "Cc1cc2c(N3CCCc4nc(-c5ccc(C(=O)NCC#Cc6cc7c(C8CCC(=O)NC8=O)cccc7s6)nc5)ncc43)cc(C3CCOCC3)cc2n(C)c1=O (stereo not drawn)",
    "VALUE_OBSERVED": "> 1 µM"
  }
]

Looking up Cc1cc2c(N3CCCc4cc(-c5ccc(C(=O)NCC#Cc6cc7c(C8CCC(=O)NC8=O)cccc7o6)nc5)nnc43)cc(C3CCOCC3)cc2n(C)c1=O (stereo not drawn) , I see its DC50 listed as 0.1 to 0.999 µM

Looking up Cc1cc2c(N3CCCc4nc(-c5ccc(C(=O)NCC#Cc6cc7c(C8CCC(=O)NC8=O)c(F)ccc7o6)nc5)ncc43)cc(C3CCOCC3)cc2n(C)c1=O (stereo not drawn) , I see its DC50 listed as > 1 µM

Looking up Cc1oc2ccc(C#CCNC(=O)c3ccc(-c4cc5cccc(-c6cc(C(C)C)c7c(c6)n(C)c(=O)n7C)c5cn4)cn3)cc2c1C1CCC(=O)NC1=O (stereo not drawn) , I see its DC50 listed as > 1 µM

Looking up Cc1cc(-c2ncc3c(n2)CCCN3c2cc(C3CCOCC3)cc3c2cc(C)c(=O)n3C)cnc1C(=O)NCC#Cc1cc2c(C3CCC(=O)NC3=O)cccc2o1 (stereo not drawn) , I see its DC50 listed as 0.01 to 0.099 µM

###

TARGET: CBP (Homo sapiens, UniProt Q92793)
Construct: host or cells: A549 CBP HiBit cells
Sequence (Q92793 whole entry): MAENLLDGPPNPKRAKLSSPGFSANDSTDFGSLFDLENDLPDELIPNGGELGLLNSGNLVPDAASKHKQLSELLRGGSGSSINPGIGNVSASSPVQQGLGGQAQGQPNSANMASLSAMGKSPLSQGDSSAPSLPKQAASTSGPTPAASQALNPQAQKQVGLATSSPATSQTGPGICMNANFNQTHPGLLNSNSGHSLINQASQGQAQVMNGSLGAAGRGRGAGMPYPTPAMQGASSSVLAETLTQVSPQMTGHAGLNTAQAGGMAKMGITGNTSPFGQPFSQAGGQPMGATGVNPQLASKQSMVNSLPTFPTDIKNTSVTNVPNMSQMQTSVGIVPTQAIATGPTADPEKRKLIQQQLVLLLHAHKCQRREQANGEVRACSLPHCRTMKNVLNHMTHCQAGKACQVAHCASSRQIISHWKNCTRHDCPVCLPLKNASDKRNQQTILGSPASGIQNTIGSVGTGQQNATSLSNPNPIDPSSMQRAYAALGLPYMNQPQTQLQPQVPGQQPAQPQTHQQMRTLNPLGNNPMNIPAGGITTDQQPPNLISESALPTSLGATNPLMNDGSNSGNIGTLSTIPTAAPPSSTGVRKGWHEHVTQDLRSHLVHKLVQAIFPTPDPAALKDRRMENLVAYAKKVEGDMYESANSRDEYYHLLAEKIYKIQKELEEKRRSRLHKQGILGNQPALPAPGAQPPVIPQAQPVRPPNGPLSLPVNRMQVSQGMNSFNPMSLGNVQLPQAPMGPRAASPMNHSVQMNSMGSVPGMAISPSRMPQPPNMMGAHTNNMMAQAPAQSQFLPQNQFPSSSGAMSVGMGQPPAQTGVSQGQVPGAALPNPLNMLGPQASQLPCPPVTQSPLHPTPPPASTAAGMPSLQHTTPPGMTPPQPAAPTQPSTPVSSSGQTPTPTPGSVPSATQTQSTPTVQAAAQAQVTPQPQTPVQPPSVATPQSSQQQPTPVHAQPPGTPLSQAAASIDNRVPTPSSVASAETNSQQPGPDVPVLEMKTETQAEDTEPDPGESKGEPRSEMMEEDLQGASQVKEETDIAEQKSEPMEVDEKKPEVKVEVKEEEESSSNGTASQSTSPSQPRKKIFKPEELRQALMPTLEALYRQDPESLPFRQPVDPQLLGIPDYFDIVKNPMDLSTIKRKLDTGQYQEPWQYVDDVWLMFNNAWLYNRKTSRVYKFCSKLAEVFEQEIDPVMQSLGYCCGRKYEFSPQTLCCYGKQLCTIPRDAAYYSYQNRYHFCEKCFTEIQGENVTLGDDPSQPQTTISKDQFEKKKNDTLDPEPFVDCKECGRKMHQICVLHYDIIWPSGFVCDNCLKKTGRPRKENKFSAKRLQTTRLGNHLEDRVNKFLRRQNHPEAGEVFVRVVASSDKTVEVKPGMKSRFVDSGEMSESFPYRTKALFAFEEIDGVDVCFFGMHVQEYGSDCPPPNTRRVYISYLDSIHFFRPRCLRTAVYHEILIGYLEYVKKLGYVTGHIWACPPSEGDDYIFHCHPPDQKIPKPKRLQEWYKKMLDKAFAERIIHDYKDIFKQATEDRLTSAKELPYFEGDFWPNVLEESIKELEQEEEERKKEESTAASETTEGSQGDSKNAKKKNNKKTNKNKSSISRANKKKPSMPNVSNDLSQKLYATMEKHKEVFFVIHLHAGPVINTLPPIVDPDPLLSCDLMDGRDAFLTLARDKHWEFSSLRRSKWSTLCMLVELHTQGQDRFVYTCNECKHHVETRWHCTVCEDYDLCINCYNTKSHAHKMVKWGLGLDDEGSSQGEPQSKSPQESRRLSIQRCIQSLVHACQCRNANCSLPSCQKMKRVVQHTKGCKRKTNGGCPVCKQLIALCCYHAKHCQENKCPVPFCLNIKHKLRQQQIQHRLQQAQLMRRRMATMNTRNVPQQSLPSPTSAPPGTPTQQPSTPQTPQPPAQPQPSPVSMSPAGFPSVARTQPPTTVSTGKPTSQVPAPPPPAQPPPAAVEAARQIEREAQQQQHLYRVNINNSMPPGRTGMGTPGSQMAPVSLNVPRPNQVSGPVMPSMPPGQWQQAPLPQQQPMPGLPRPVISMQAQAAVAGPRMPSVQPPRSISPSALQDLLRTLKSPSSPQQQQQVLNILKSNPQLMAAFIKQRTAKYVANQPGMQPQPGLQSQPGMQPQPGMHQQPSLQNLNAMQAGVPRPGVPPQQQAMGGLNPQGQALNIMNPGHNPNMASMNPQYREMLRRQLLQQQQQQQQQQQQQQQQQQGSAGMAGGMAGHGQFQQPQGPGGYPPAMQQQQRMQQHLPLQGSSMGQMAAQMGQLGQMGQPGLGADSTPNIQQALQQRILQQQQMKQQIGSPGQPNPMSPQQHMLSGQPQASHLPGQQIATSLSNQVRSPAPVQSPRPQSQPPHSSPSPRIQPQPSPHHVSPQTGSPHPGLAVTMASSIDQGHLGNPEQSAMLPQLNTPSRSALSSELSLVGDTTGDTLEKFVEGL
TEST: CBP degradation, HiBit technology in A549 CBP HiBit cells (24 h)
Type: cell-based
MEASUREMENT_SETUP: 24 hrs post treatment
Procedure: p300 and CBP degradation potency and Dmax were determined using in cell western (ICW) assay technology in H1299 cells or HiBit technology in A549 HiBit cells. A549 P300 HiBit and A549 CBP HiBit cells were plated in separate 384-well, TC treated, white-opaque, flat-bottomed microplate. […] After incubation, luminescent signal of each plate was measured using the Envision instrument (Perkin Elmer).
ENDPOINT_NAME: DC50

Solved entries (count: 5):
[
  {
    "COMPOUND": "Cc1cc2c(N3CCCc4nc(-c5ccc(C(=O)NCC#Cc6ccc7occ(C8CCC(=O)NC8=O)c7c6)nc5)ncc43)nc(N3CCOCC3)cc2n(C)c1=O (stereo not drawn)",
    "DC50": "> 1 µM"
  },
  {
    "COMPOUND": "Cc1cc(-c2ncc3c(n2)OCCN3c2ccc3c(c2)n(C)c(=O)n3C)cnc1C(=O)NCC#Cc1cc2c(C3CCC(=O)NC3=O)ccc(F)c2o1 (stereo not drawn)",
    "DC50": "> 1 µM"
  },
  {
    "COMPOUND": "Cn1c(=O)n(C)c2c(N3CC(O)C3)nc(-c3cccc4cc(-c5ccc(C(=O)NCC#Cc6ccc7occ(C8CCC(=O)NC8=O)c7c6)nc5)ncc34)cc21 (stereo not drawn)",
    "DC50": "> 1 µM"
  },
  {
    "COMPOUND": "CC(C)c1cc(N2CCOc3cc(-c4ccc(C(=O)NCC#Cc5ccn6ncc(C7CCC(=O)NC7=O)c6c5)nc4)ncc32)cc2c1n(C)c(=O)n2C (stereo not drawn)",
    "DC50": "0.1 to 0.999 µM"
  },
  {
    "COMPOUND": "CC(C)c1cc(-c2cccc3cc(-c4ccc(C(=O)NCC#Cc5cc(NC6CCC(=O)NC6=O)nn5C)nc4)ncc23)cc2c1n(C)c(=O)n2C (stereo not drawn)",
    "DC50": "> 1 µM"
  }
]

Looking up `CC(C)c1cc(-c2cccc3cc(-c4ccc(C(=O)NCC#Cc5cccc(NC67CC(C6)C(=O)NC7=O)c5)nc4)ncc23)cc2c1n(C)c(=O)n2C` , I see its DC50 listed as > 1 µM

###

TARGET: p300 (Homo sapiens, UniProt Q09472)
Construct: host or cells: A549 P300 HiBit cells
Sequence (Q09472 whole entry): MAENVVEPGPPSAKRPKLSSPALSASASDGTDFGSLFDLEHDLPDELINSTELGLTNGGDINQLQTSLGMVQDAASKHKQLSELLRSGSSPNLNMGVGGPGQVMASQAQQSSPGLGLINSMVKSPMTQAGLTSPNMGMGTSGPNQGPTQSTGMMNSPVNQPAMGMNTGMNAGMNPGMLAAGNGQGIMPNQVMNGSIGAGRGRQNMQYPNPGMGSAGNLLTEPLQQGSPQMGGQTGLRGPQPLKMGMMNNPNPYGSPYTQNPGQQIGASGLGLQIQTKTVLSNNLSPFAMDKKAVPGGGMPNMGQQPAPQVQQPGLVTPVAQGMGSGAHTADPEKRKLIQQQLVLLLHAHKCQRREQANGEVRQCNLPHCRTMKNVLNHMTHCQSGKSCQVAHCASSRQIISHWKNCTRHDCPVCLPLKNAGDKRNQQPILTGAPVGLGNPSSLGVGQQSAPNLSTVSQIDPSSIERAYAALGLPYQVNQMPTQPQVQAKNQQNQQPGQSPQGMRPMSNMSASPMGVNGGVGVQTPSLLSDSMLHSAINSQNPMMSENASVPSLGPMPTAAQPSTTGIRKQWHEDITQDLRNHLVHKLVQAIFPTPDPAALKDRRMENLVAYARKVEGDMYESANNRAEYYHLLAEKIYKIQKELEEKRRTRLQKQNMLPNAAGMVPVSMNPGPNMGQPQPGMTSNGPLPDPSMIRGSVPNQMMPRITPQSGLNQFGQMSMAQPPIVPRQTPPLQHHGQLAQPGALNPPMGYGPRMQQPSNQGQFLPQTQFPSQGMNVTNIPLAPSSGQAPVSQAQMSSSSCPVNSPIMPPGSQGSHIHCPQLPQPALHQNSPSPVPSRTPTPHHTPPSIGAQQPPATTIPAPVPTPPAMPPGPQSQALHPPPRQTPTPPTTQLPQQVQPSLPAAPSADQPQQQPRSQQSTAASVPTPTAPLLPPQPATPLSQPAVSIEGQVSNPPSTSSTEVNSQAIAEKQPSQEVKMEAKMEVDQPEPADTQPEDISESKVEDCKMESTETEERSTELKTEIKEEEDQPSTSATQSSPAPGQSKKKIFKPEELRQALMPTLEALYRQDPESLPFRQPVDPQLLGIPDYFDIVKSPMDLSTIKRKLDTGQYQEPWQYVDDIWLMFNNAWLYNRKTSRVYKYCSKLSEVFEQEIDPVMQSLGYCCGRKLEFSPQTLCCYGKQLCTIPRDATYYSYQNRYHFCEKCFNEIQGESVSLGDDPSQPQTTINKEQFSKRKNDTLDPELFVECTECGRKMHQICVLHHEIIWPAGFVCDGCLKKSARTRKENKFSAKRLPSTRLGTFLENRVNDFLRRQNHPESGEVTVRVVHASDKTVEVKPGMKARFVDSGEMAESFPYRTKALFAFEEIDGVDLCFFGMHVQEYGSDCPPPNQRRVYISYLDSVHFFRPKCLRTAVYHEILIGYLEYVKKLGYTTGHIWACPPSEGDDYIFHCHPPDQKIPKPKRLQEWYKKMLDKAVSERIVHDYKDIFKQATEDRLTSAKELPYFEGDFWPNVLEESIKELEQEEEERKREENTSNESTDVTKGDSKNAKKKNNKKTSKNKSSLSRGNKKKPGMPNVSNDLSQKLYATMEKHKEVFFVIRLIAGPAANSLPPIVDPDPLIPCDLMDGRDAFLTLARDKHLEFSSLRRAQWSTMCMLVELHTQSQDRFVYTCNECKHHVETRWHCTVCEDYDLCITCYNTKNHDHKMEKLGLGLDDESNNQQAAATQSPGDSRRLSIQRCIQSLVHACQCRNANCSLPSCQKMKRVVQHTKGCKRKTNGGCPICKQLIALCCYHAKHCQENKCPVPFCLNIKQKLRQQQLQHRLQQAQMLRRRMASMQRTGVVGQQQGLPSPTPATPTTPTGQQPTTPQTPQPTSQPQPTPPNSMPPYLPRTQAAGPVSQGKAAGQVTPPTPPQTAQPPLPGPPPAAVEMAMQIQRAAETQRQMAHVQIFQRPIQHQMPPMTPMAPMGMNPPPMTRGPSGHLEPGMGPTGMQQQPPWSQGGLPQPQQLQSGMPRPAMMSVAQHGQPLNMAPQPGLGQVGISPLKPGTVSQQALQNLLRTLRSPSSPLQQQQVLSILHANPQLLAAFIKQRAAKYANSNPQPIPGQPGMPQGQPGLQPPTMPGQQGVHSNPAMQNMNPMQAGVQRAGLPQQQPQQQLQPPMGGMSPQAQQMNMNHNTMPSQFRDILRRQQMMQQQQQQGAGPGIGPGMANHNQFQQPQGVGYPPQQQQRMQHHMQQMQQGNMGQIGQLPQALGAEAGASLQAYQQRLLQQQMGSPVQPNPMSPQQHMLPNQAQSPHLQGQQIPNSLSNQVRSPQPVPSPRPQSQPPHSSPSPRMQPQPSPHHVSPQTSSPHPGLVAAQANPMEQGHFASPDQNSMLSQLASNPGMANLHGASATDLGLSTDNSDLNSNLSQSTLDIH
TEST: P300 degradation, HiBit technology in A549 P300 HiBit cells (2 h)
Assay type: cell-based
MEASUREMENT_SETUP: A549 P300 HiBit cells, 2 hrs post treatment
ENDPOINT_NAME: DC50

Solved entries (count: 2):
[
  {
    "COMPOUND": "Cc1cc2c(N3CCCc4nc(-c5ccc(C(=O)NCC#Cc6cc7c(C8CCC(=O)NC8=O)nccc7o6)nc5)ncc43)nc(N3CCC3)cc2n(C)c1=O (stereo not drawn)",
    "VALUE_OBSERVED": "1 to 9.9 nM"
  },
  {
    "COMPOUND": "Cc1cc(-c2ncc(N(C)c3cc(C4CCOCC4)c4c(c3)n(C)c(=O)n4C)cn2)cnc1C(=O)NCC#Cc1cc2c(C3CCC(=O)NC3=O)cccc2o1 (stereo not drawn)",
    "VALUE_OBSERVED": "1 to 9.9 nM"
  }
]

Looking up COc1cc(C#CCNC(=O)c2ccc(-c3cc4cccc(-c5cc(C(C)C)c6c(c5)n(C)c(=O)n6C)c4cn3)cn2)cc2c1cnn2C1CCC(=O)NC1=O (stereo not drawn) , I see its DC50 listed as 10 to 99 nM

Looking up `Cn1c(=O)n(C)c2cc(N3CCOc4nc(-c5ccc(C(=O)NCC#Cc6ccc7occ(C89CC(C8)C(=O)NC9=O)c7c6)nc5)ncc43)ccc21` , I see its DC50 listed as 10 to 99 nM

Looking up Cc1cc(N2CCN(C)c3nc(-c4ccc(C(=O)NCC#Cc5cc6c(C7CCC(=O)NC7=O)nccc6o5)nc4)ncc32)cc2c1n(C)c(=O)n2C (stereo not drawn) , I see its DC50 listed as 1 to 9.9 nM

Looking up Cc1cc2c(N3CCCc4nc(-c5ccc(C(=O)NCC#Cc6ccc7occ(C8CCC(=O)NC8=O)c7c6)nc5)ncc43)cc(C3CCN(C(=O)C4CCOCC4)CC3)cc2n(C)c1=O (stereo not drawn) , I see its DC50 listed as 1 to 9.9 nM

Looking up CC(C)c1cc(N(C)c2cnc(-c3ccc(C(=O)NCC#Cc4ccc5occ(C6CCC(=O)NC6=O)c5c4)nc3)cn2)cc2c1n(C)c(=O)n2C (stereo not drawn) , I see its DC50 listed as 1 to 9.9 nM
